TEST_DESCRIPTION: Plasma pharmacokinetics after a single oral RK dose, normal-weight
Format: in vivo, C57BL/6J mice
REPORTED_CONDITIONS: male, C57BL/6J, mouse, plasma, po, 200 mg/kg, Tmax, Pl-N: plasma, normal-weight male mice; single oral RK 200 mg kg^−1
EXPERIMENTAL_ENDPOINT: Tmax (min)

COc1cc(CCC(C)=O)ccc1O; 25
CC(=O)CCc1ccc(O)cc1 [RK, 4-(4-hydroxyphenyl)-2-butanone]; 15
OCCc1ccc(O)cc1 [4-HPE, 2-(4-hydroxyphenyl)ethanol]; 20
COc1ccc(CCC(C)=O)cc1; 20

A: OCCc1ccc(O)c(O)c1 [3,4-DHPE, 2-(3,4-dihydroxyphenyl)ethanol]
B: CC(=O)C=Cc1ccc(O)c(O)c1 [DHPhLiAce, 3,4-dihydroxybenzylideneacetone]
Q) Please indicate which entry, A or B , has the lower recorded Tmax value. Selection: enter the item's label.
A) A

* * *

TEST_DESCRIPTION: Plasma pharmacokinetics after a single oral RK dose, male vs female mice
Assay type: in vivo, C57BL/6J mice
REPORTED_CONDITIONS: female, C57BL/6J, mouse, plasma, po, 200 mg/kg
EXPERIMENTAL_ENDPOINT: Tmax (min)

OCCc1ccc(O)cc1 [4-HPE, 2-(4-hydroxyphenyl)ethanol]; 40
COc1cc(CCC(C)=O)ccc1O; 15
CC(=O)CCc1ccc(O)cc1 [RK, 4-(4-hydroxyphenyl)-2-butanone]; 15
OCCc1ccc(O)c(O)c1 [3,4-DHPE, 2-(3,4-dihydroxyphenyl)ethanol]; 15

A: CC(=O)C=Cc1ccc(O)c(O)c1 [DHPhLiAce, 3,4-dihydroxybenzylideneacetone]
B: COc1ccc(CCC(C)=O)cc1
Q) Given the listed records, identify the one among A and B with higher Tmax. Pick one and reply with its label.
A) B

* * *

TEST_DESCRIPTION: Plasma pharmacokinetics after a single oral RK dose, male vs female mice
Assay type: in vivo, C57BL/6J mice
REPORTED_CONDITIONS: Pl-F: plasma, female LFD mice; single oral RK 200 mg kg^−1; mean±SEM
EXPERIMENTAL_ENDPOINT: Cmax (µM)
Field: numeric (µM). Do not append units.

Q) Give its Cmax value. Item: CC(O)CCc1ccc(O)cc1 (stereo not shown)
A) 130

* * *

TEST_DESCRIPTION: Plasma pharmacokinetics after a single oral RK dose, male vs female mice
Assay type: in vivo, C57BL/6J mice
REPORTED_CONDITIONS: female, C57BL/6J, mouse, plasma, po, 200 mg/kg
EXPERIMENTAL_ENDPOINT: AUC(0-t) (µM·h)

CC(=O)CCc1ccc(O)cc1 [RK, 4-(4-hydroxyphenyl)-2-butanone]; 299

I: COc1ccc(CCC(C)=O)cc1 [RK-Me, 4-(4-methoxy-phenyl)-2-butanone]
II: OCCc1ccc(O)cc1 [4-HPE, 2-(4-hydroxyphenyl)ethanol]
Q) Between I and II , whose recorded AUC(0-t) is greater? Provide the label of your selected option as the answer.
A) II
(II: 98.7 µM·h, I: 0.069 µM·h)

* * *

Type: in vivo, C57BL/6J mice
REPORTED_CONDITIONS: Br-O: brain, obese male mice; single oral RK 200 mg kg^−1
EXPERIMENTAL_ENDPOINT: Cmax (nmol/g)

CC(=O)CCc1ccc(O)cc1 [RK, 4-(4-hydroxyphenyl)-2-butanone]; 46.7

I: OCCc1ccc(O)c(O)c1 [3,4-DHPE, 2-(3,4-dihydroxyphenyl)ethanol]
II: OCCc1ccc(O)cc1 [4-HPE, 2-(4-hydroxyphenyl)ethanol]
Q) For the pair I and II , which member has the lower Cmax number? Give the label under which the chosen entry appears.
A) I
(I: 0.025 nmol/g, II: 7.92 nmol/g)

The reported measurements were obtained from paper PMC7329366.
